EXPERIMENTAL_DETAILS: Cytotoxicity against human MCF-10A cells measured after 72 hrs by MTT assay
Type: toxicity, cell-based
OBSERVED_PROPERTY: IC50 at 72 h

COc1cc(-c2onc3c2/C(=N/OC(=O)c2cccc(NC(=O)c4cccc(F)c4)c2)CC(C)(C)C3)ccc1O; > 30 µM

###

Tested on: HCC1954
EXPERIMENTAL_DETAILS: Antiproliferative activity against human HCC1954 cells measured after 72 hrs by SRB assay
Assay type: functional, cell-based
CONDITION_SUMMARY: HCC1954, 72 h
OBSERVED_PROPERTY: IC50 (µM)

COc1cc(-c2onc3c2/C(=N/OC(=O)c2cccc(NC(=O)c4cccc(F)c4)c2)CC(C)(C)C3)ccc1O; 6
COc1cc(/C=C(\C#N)C(N)=O)cc(CSc2nc3ccccc3s2)c1O; 30
